# System: Escherichia coli
# ASSAY: Antibacterial activity against Escherichia coli MC1061 by microdilution method
# Type: functional

{"MOLECULE": "CCCCCCCCCCCCCCSC[C@@H]1O[C@@H](O[C@@H]2[C@@H](O)[C@H](O[C@@H]3O[C@@H](CN)[C@H](O)[C@@H](O)[C@@H]3N)[C@@H](N)C[C@H]2N)[C@@H](O)[C@H](N)[C@H]1O (stereo in doubt)", "MIC": "> 128 µg/mL"}
{"MOLECULE": "CCCCCCCCSC[C@@H]1O[C@@H](O[C@@H]2[C@@H](O)[C@H](O[C@@H]3O[C@@H](CN)[C@H](O)[C@@H](O)[C@@H]3N)[C@@H](N)C[C@H]2N)[C@@H](O)[C@H](N)[C@H]1O (stereo in doubt)", "MIC": "> 128 µg/mL"}
{"MOLECULE": "CCCCCCCCCCSC[C@@H]1O[C@@H](O[C@@H]2[C@@H](O)[C@H](O[C@@H]3O[C@@H](CN)[C@H](O)[C@@H](O)[C@@H]3N)[C@@H](N)C[C@H]2N)[C@@H](O)[C@H](N)[C@H]1O (stereo in doubt)", "MIC": "> 128 µg/mL"}
